Measured growth inhibition by item
Assay: NCI Yeast Anticancer Drug Screen. Data for the mec2-1 strain (AID 157)
Details: S. cerevisiae mec2-1 strain, at 5.0 µM (retest, dose inferred, filed as 0.5), active compounds read high
Compounds without any hit were thinned out: in the full panel of roughly 79,000, 15% have a hit. Calls of active or inactive are those of the source. Rule as the data show it: active = growth inhibition above about 70%; inactive = the rest.
value-type: growth inhibition

[[record]]
compound = "S=c1[nH]c2ccccc2s1.[Pb]"
result = "-1% (inactive)"

[[record]]
compound = "Cc1ccc([NH-])cc1C.Cc1ccc([NH-])cc1C.[Cl][Pt+2][Cl]"
result = "-1% (inactive)"

[[record]]
compound = "CCCCCCCCCC(=O)[O][Hg][c]1ccccc1"
result = "100% (active)"

[[record]]
compound = "CC(=O)Nc1c2sscc-2n(C)c1=O"
result = "99% (active)"

[[record]]
compound = "O=C1C=C(N2CC2)C(=O)C(N2CC2)=C1N1CC1"
result = "98% (active)"

[[record]]
compound = "CCCC[As](CCCC)SC1CCC2(C)C(=CCC3C4CCC(=O)C4(C)CCC32)C1 (stereo unspecified)"
result = "6% (inactive)"

[[record]]
compound = "Cc1sc(Cc2ccccc2)nc1-c1ccc(N=Cc2ccc(N(CCCl)CCCl)cc2)cc1"
result = "2% (inactive)"

[[record]]
compound = "Cc1ccc2c(c1)N(CCN(CCCl)CCCl)c1c(ccc3ccccc13)S2"
result = "-1% (inactive)"

[[record]]
compound = "CCCCCCCNC(=O)CI"
result = "13% (inactive)"

[[record]]
compound = "CC(C)c1ccc(C(c2c(O)c3ccccc3oc2=O)c2c(O)c3ccccc3oc2=O)cc1"
result = "-5% (inactive)"

[[record]]
compound = "Cc1cc(N(CCCl)CCCl)ccc1C=Nc1ccc(-c2csc(Cc3ccccc3)n2)c(Cl)c1"
result = "-7% (inactive)"


----------
Assay: NCI Yeast Anticancer Drug Screen. Data for the cln2 rad14 strain (AID 165);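 also: 0% = growth equal to vehicle treated cultures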
Details: S. cerevisiae cln2 rad14 strain, at 5.0 µM (retest, dose inferred, filed as 0.5), active compounds read high
The panel holds about 79,000 compounds, 15% with a hit somewhere; the sample as a whole holds those more often. The source made the active and inactive calls. No stated cut-off is given here; in the data, active means growth inhibition above about 70%; inactive means the rest.
Measured growth inhibition by item
value-type: growth inhibition

[[record]]
compound = "CC(=O)O.[RuH].c1ccc([PH+](c2ccccc2)c2ccccc2)cc1.c1ccc([PH+](c2ccccc2)c2ccccc2)cc1.c1ccc([PH+](c2ccccc2)c2ccccc2)cc1"
value_type = "growth inhibition"
result = "-9% (inactive)"

[[record]]
compound = "COC1CCC(OC2CC(C3(C)CCC4(CC(O)C(C)C(C(C)/C=C(\\C)C(=O)C(C)CC(C)C(=O)O)O4)O3)OC3(OC(C4OC(O)(CO)C(C)CC4C)CC3C)C2C)OC1C (stereo not drawn)"
value_type = "growth inhibition"
result = "65% (inactive)"

[[record]]
compound = "O=[N+]([O-])O.c1ccc([As+](c2ccccc2)(c2ccccc2)c2ccccc2)cc1"
value_type = "growth inhibition"
result = "7% (inactive)"

[[record]]
compound = "OC(c1ccccc1)(c1ccccc1)c1ccccn1"
value_type = "growth inhibition"
result = "-6% (inactive)"

[[record]]
compound = "O=C1N[C@H]2[C@H](O)[C@H](O)[C@@H](O)[C@H](O)[C@@H]2c2cc3c(c(O)c21)OCO3"
value_type = "growth inhibition"
result = "32% (inactive)"

[[record]]
compound = "C/C=C(\\C)C(=O)OC1CC(C)(C)CC2C3=CCC4C5(C)CCC(=O)C(C)(C)C5CCC4(C)C3(C)CCC12C(=O)O (stereo not drawn) (tested in a mixture with another compound)"
value_type = "growth inhibition"
result = "38% (inactive)"

[[record]]
compound = "C1CN1[PH+](N1CC1)N1CC1.C1CN1[PH+](N1CC1)N1CC1.[I][Pt][I]"
value_type = "growth inhibition"
result = "1% (inactive)"

[[record]]
compound = "CCCCSc1ccc(C(SCCN(CC)CC)c2ccccc2)cc1 (stereo not drawn)"
value_type = "growth inhibition"
result = "32% (inactive)"

[[record]]
compound = "CC(=N\\O)/C(C)=N/O.CC(=N\\O)/C(C)=N/O.CC(=N\\O)/C(C)=N/O.CC(=N\\O)/C(C)=N/O.[CH3-].[CH3-].[Co].[Co]"
value_type = "growth inhibition"
result = "11% (inactive)"

[[record]]
compound = "N=C(N)c1ccc(NN=Nc2cccc3c2Oc2ccccc2O3)cc1"
value_type = "growth inhibition"
result = "14% (inactive)"

[[record]]
compound = "CC(=O)Nc1c2sscc-2n(C)c1=O"
value_type = "growth inhibition"
result = "98% (active)"

[[record]]
compound = "CN(C)c1ccc(C(c2c(O)c3ccccc3oc2=O)c2c(O)c3ccccc3oc2=O)cc1"
value_type = "growth inhibition"
result = "-5% (inactive)"

[[record]]
compound = "CC12C(=O)C=CCC1=CCC1C2CCC2(O)C(=O)OC3(C)C4CC5(C)C(COC16OC23C5C6=O)C(=O)O4 (stereo not drawn)"
value_type = "growth inhibition"
result = "3% (inactive)"

[[record]]
compound = "O=C1c2ccccc2CCC1Br (stereo not drawn)"
value_type = "growth inhibition"
result = "-18% (inactive)"

[[record]]
compound = "O=C1C=CC(=O)C(Cl)=C1"
value_type = "growth inhibition"
result = "6% (inactive)"

[[record]]
compound = "CCC(=O)C(CCN1CCC(N2C(=O)C(CCC#N)c3ccccc32)CC1)(c1ccccc1)c1ccccc1 (stereo not drawn)"
value_type = "growth inhibition"
result = "-2% (inactive)"

[[record]]
compound = "[C-]#[O+].[Cl][Sn]([Cl])[Cl].[Cl][Sn]([Cl])[Cl].[Pt].c1ccncc1"
value_type = "growth inhibition"
result = "3% (inactive)"

[[record]]
compound = "O=[As](O)(O)c1ccc(Cc2ccc([As](=O)(O)O)cc2)cc1"
value_type = "growth inhibition"
result = "59% (inactive)"

[[record]]
compound = "c1cc2n[pH]nc2cn1 (stereo not drawn)"
value_type = "growth inhibition"
result = "5% (inactive)"

[[record]]
compound = "NCCNCCNCCNCCN (tested in a mixture with another compound)"
value_type = "growth inhibition"
result = "2% (inactive)"

[[record]]
compound = "O=C1c2ccccc2C[CH]1[Hg][Cl] (stereo not drawn)"
value_type = "growth inhibition"
result = "99% (active)"

[[record]]
compound = "CCOP(=S)(OCC)SSSP(=S)(OCC)OCC"
value_type = "growth inhibition"
result = "5% (inactive)"

[[record]]
compound = "CC(=O)c1cc(CN(CCCl)CCCl)c(O)c(CN(CCCl)CCCl)c1O"
value_type = "growth inhibition"
result = "4% (inactive)"

[[record]]
compound = "CC(=O)C(CN1CCOCC1)C(c1ccccc1)c1c(O)c2ccccc2oc1=O (stereo not drawn)"
value_type = "growth inhibition"
result = "5% (inactive)"

[[record]]
compound = "CCCCCCCCCCCCCC(=O)[O][Hg][c]1ccccc1"
value_type = "growth inhibition"
result = "99% (active)"

[[record]]
compound = "Cc1ccc(NCc2ccccc2)cc1[As](=O)(O)O"
value_type = "growth inhibition"
result = "-5% (inactive)"

[[record]]
compound = "ClCCN(CCCl)c1ccc(C2N(Cc3ccc(Cl)cc3)CCN2Cc2ccc(Cl)cc2)cc1"
value_type = "growth inhibition"
result = "13% (inactive)"

[[record]]
compound = "C[C@]12CCC(O)CC1=CC[C@@H]1[C@@H]2CC[C@]2(C)C(=O)[C@H](n3ccnc3)C[C@@H]12 (stereo partly drawn)"
value_type = "growth inhibition"
result = "29% (inactive)"

[[record]]
compound = "C=NCC#N"
value_type = "growth inhibition"
result = "11% (inactive)"

[[record]]
compound = "CC1(C(=O)O)CCCC2(C)c3cc(O)ccc3CCC12 (stereo not drawn)"
value_type = "growth inhibition"
result = "-3% (inactive)"

[[record]]
compound = "CC1(C)CC2(c3ccccc3)CC(c3ccccc3)C1C(C(=O)O)C2C(=O)O (stereo not drawn)"
value_type = "growth inhibition"
result = "7% (inactive)"

[[record]]
compound = "O=C1CN2CCCCC2CN1 (stereo not drawn)"
value_type = "growth inhibition"
result = "-58% (inactive)"

[[record]]
compound = "BrP(NC1CCCCCC1)(c1ccccc1)(c1ccccc1)c1ccccc1"
value_type = "growth inhibition"
result = "12% (inactive)"

[[record]]
compound = "O=C(CBr)OCCBr"
value_type = "growth inhibition"
result = "25% (inactive)"

[[record]]
compound = "Nc1ccc(C(=O)O)c(C(=O)O)c1.[Cl][Sn]([Cl])([Cl])[Cl]"
value_type = "growth inhibition"
result = "-4% (inactive)"

[[record]]
compound = "CC1(C)N=C(N)N=C(N)N1c1ccc(OCCCCNC(=O)Nc2ccc(S(=O)(=O)F)cc2)c(Cl)c1"
value_type = "growth inhibition"
result = "-4% (inactive)"

[[record]]
compound = "COc1cc(C2c3cc4c(cc3OC(N3CCOCC3)C2C)OCO4)cc(OC)c1OC (stereo not drawn)"
value_type = "growth inhibition"
result = "4% (inactive)"

[[record]]
compound = "O=[N+]([O-])/C=C/c1ccc(Cl)cc1[N+](=O)[O-]"
value_type = "growth inhibition"
result = "98% (active)"


Where do the numbers come from? From PubChem BioAssay (NCI).
